Some molecules, each annotated with its measured MRT inf.
# Test details: Pharmacokinetic study in rats after oral administration of cinobufacini capsule (UPLC-MS/MS of plasma)
# Format: in vivo, rat
# Conditions: male, Sprague-Dawley, in vivo; rat plasma, oral cinobufacini capsule 1.8 g/kg (medium), mean ± SD, n = 6; read-out: MRT0-∞
Output spec: scalar in h, unitless text.

Molecule	Reading unit	MRT inf
C[C@]12CC[C@H](O)C[C@H]1CC[C@@H]1[C@@H]2C(=O)[C@@H](O)[C@]2(C)[C@@H](c3ccc(=O)oc3)CC[C@]12O [PBG, pseudobufarenogin]	h	1.54

Query: MRT inf; subject: C[C@]12CC[C@H](O)C[C@H]1CC[C@@H]1[C@@H]2[C@H](O)C[C@]2(C)[C@@H](c3ccc(=O)oc3)CC[C@]12O [GBL, gamabufotalin]
0.79

Now give it for C[C@]12CC[C@H](O)C[C@@]1(O)CC[C@@H]1[C@@H]2CC[C@]2(C)[C@@H](c3ccc(=O)oc3)[C@@H](O)[C@H]3O[C@]132 [DCT, desacetylcinobufotalin] too.
3.1
